testSystem: Alpha amylase (Homo sapiens) (UniProt P0DUB6)
Sequence (P0DUB6 whole entry, looked up): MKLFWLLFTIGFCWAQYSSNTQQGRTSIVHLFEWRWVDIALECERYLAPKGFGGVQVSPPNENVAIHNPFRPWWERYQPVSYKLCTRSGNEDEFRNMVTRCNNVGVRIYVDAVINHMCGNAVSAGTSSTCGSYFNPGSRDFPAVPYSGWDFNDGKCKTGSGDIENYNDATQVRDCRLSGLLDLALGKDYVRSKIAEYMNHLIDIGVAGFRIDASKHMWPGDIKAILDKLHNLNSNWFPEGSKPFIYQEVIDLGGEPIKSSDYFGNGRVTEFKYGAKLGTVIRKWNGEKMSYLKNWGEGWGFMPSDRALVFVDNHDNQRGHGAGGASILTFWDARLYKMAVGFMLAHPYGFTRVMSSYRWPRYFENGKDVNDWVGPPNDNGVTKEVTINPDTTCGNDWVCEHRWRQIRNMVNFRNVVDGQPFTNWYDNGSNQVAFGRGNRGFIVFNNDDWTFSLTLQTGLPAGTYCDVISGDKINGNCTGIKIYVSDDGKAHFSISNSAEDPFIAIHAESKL
assaySummary: Inhibition of alpha-amylase (unknown origin) relative to control
Set-up: concentration or dose not given beside the values
reportedConditions: concentration not given here
measuredParameter: inhibition

In [3]: df
Out[3]:
                                  cpdsmiles  result
0         O=c1cc(-c2ccccc2)oc2cc(O)cc(O)c12      5%
1  O=c1c(O[C@@H]2O[C@H](CO)[C@@H](O)[C@H](O)[C@H]2O)c(-c2ccc(O)c(O)c2)oc2cc(O)cc(O)c12   12.2%
2      O=c1cc(-c2ccc(O)cc2)oc2cc(O)cc(O)c12   12.4%
3  C[C@@H]1O[C@@H](O[C@H]2[C@H](Oc3cc(O)c4c(c3)O[C@H](c3ccc(O)cc3)CC4=O)O[C@H](CO)[C@@H](O)[C@@H]2O)[C@H](O)[C@H](O)[C@H]1O      0%
4  Oc1cc(O)c2c(c1)O[C@@H](c1ccc(O)c(O)c1)[C@H](O)C2     16%

The measurements presented in this section are drawn from ChEMBL document CHEMBL3616379.
